These data points were gathered from patent US20040039023A1.

target: α1-adrenoceptors; assay: Inhibition of [7-methoxy-3H]prazosin binding to α1-adrenoceptors, rat whole cortical tissue; details: ligand [7-methoxy-3H]prazosin 0.1 nM
Assay metric: Ki
Field note: include the unit after the figure.

Known Ki results, listed for orientation:
[
  {
    "Compound": "Oc1ccccc1N1CCC(CNC[C@H]2COc3ccc(C(F)(F)F)cc3O2)CC1",
    "Result": "573 nM"
  },
  {
    "Compound": "Oc1ccccc1N1CCC(CNC[C@H]2COc3ccc(Cl)cc3O2)CC1",
    "Result": "101 nM"
  }
]

Now turn to the next compound.
**Query** Reported Ki for COc1ccccc1N1CCC(CNC[C@H]2COc3ccc(Cl)cc3O2)CC1 [Comparative Example A, reference compound] : what is it?
**Result** 53 nM

---

Exercise: for every item that follows, state its recorded Ki.
target: 5-HT1A receptors (Rattus norvegicus); construct: Hippocampal tissue from the brains of male Charles River CD rats; from tissue; host or cells: rat hippocampus membrane homogenate; assay: Inhibition of [3H]8-OH-DPAT binding to 5-HT1A receptors, rat hippocampal tissue; conditions: ligand [3H]8-OH-DPAT 2 nM
Sequence (P19327 whole entry): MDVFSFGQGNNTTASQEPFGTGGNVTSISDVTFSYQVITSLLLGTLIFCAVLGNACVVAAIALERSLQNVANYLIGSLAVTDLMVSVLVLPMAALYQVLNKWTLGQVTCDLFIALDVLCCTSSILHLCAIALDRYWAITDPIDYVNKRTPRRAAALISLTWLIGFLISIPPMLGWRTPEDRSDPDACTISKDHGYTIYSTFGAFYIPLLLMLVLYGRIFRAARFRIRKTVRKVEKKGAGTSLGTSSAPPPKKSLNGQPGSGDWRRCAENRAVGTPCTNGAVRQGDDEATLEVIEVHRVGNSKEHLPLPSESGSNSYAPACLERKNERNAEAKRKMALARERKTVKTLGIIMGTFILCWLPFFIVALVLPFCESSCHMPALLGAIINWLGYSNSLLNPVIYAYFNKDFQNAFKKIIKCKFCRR

Known Ki results, listed for orientation:
[
  {
    "Molecule": "COc1ccccc1N1CCC(CNC[C@H]2COc3ccc(Cl)cc3O2)CC1 [Comparative Example A, reference compound]",
    "Target desc": "5-HT1A receptors (Rattus norvegicus)",
    "Ki": "22 nM"
  },
  {
    "Molecule": "Oc1ccccc1N1CCC(CNC[C@H]2COc3ccc(C(F)(F)F)cc3O2)CC1 [Example 2]",
    "Target desc": "5-HT1A receptors (Rattus norvegicus)",
    "Ki": "37 nM"
  }
]

Now turn to the next molecule.
**Query** Reported Ki for Oc1ccccc1N1CCC(CNC[C@H]2COc3ccc(Cl)cc3O2)CC1 [Example 1] : what is it?
**Result** 12 nM

---

target: D2 dopamine receptors (Rattus norvegicus, UniProt P61169); construct: Striatal tissue from the brains of male Charles River CD rats; from tissue; host or cells: rat striatum membrane homogenate; assay: Inhibition of tritiated (S)-sulpiride binding to D2 dopamine receptors, rat striatal tissue; conditions: ligand tritiated (S)-sulpiride 1 nM
Sequence (P61169 whole entry): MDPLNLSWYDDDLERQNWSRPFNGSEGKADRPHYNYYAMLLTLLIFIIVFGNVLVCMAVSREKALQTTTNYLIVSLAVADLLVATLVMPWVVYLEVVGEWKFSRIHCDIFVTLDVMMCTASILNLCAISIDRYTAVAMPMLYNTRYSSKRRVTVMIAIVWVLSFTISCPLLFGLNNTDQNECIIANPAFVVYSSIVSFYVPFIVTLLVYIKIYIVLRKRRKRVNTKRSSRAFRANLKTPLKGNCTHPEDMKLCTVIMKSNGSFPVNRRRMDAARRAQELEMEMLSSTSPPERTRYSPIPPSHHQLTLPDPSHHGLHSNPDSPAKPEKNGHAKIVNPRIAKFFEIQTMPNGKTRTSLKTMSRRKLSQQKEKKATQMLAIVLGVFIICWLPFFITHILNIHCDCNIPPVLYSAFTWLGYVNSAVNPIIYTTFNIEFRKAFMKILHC
Assay metric: Ki (nM)
One number for each entry, in nM.

[
  {
    "Smiles": "Oc1ccccc1N1CCC(CNC[C@H]2COc3ccc(Cl)cc3O2)CC1",
    "Ki [nM]": 11
  }
]

**Query** API: value(readout=Ki, system=D2 dopamine receptors (Rattus norvegicus, UniProt P61169)) for record Oc1ccccc1N1CCC(CNC[C@H]2COc3ccc(C(F)(F)F)cc3O2)CC1
**Result** 25
